Here's a roundup of log10 IC50 values tested on Serine/threonine-protein kinase ATR (Homo sapiens, UniProt Q13535), taken from various published works.
Sequence (Q13535 whole entry): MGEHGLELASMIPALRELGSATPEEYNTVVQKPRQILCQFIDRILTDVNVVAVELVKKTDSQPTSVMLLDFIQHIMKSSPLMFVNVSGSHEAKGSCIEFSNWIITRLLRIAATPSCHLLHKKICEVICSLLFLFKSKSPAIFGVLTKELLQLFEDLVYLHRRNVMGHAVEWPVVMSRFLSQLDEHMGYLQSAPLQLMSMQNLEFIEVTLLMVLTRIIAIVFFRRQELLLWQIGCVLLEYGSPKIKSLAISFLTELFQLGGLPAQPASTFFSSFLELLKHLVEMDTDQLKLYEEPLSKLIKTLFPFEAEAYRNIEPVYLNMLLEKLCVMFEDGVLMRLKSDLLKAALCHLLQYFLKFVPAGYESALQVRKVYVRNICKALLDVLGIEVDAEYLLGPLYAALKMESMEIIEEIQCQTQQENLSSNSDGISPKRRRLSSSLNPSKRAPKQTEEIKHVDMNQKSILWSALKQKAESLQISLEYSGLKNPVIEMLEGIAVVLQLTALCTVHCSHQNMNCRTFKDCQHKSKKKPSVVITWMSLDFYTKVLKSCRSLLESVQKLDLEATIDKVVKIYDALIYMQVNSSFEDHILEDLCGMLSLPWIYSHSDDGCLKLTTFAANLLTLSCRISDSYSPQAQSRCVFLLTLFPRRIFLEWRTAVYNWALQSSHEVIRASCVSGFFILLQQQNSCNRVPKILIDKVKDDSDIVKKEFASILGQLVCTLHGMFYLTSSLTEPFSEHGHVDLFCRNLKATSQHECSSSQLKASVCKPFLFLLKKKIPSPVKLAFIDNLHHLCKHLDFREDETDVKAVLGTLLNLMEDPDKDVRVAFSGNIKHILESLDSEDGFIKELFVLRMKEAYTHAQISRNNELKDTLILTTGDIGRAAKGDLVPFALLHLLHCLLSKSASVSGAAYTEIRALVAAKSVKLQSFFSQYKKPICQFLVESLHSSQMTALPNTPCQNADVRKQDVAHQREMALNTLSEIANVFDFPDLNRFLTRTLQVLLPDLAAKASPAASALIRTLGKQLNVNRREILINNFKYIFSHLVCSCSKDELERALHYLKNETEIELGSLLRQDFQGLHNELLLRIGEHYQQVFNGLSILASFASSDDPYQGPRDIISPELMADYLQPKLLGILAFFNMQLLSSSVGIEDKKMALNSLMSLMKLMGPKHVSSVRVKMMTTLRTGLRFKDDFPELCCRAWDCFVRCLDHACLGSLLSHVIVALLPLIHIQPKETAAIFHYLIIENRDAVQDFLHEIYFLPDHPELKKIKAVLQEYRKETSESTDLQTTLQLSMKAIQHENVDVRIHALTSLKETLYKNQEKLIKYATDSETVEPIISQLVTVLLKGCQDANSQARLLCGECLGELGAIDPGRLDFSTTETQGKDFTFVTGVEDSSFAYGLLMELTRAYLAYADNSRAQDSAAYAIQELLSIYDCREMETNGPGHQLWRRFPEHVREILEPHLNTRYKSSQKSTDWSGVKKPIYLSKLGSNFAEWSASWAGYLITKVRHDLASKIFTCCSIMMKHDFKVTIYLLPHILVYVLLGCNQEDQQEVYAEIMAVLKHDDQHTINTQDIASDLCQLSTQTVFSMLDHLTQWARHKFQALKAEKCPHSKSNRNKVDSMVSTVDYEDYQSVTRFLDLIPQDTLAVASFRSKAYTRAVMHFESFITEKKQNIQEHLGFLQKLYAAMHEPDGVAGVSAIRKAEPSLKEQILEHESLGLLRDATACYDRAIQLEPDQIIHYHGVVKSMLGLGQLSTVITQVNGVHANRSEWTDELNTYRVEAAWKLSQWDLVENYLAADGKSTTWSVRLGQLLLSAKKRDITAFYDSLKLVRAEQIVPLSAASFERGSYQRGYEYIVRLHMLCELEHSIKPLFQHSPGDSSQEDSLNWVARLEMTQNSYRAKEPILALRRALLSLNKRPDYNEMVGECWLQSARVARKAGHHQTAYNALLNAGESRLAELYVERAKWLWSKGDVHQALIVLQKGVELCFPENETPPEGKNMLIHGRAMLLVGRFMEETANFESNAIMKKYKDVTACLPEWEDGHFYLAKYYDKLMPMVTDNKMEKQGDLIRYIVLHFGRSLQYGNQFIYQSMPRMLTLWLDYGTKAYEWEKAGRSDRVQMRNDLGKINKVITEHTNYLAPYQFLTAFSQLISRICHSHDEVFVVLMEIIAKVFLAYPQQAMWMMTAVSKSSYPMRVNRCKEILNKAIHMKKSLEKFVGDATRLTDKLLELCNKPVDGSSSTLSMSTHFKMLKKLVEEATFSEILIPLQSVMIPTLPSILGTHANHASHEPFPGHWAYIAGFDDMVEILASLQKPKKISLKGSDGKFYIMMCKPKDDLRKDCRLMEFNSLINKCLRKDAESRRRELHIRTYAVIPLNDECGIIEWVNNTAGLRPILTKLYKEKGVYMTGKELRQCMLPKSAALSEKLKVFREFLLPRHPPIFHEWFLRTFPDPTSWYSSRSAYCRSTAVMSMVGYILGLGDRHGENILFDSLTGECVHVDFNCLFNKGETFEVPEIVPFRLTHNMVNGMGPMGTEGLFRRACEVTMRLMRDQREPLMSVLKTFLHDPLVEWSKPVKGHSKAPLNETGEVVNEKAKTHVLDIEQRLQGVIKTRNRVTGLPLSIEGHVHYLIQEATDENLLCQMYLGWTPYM
Heads up: the numbers are on a log10 scale; they represent IC50 in nM.

COc1ccc(C(=O)N2CCc3c(nc(-c4cccc5[nH]ccc45)nc3N3CCOC[C@H]3C)C2)cc1 = 1.71
CN(C)S(=O)(=O)c1ccc(-c2cnn3c2CN(c2ccnc4[nH]ccc24)CC3)cc1 = 0.00
CN(C)S(=O)(=O)c1ccc(-c2cnc3ccc(-c4ccnc5[nH]ccc45)nn23)cc1 = -0.30
C[C@@H]1COCCN1c1nc(-c2ccnc3[nH]ccc23)nc2c(C#N)csc12 = 1.72
COc1cc(C(=O)N2Cc3c(N4CCOC[C@H]4C)nc(-c4cccc5[nH]ccc45)nc3C2(C)C)cc(OC)c1OC = 1.28
C[C@@H]1Cn2ncc(C3CCN(S(C)(=O)=O)CC3)c2CN1c1ccnc2[nH]cnc12 = 0.30
CC(=O)c1csc2c(N3CCOC[C@H]3C)nc(-c3ccnc4[nH]ccc34)nc12 = 1.55
CNc1nc2ccccc2n1-c1nc(N2CCOC[C@H]2C)c2scc(S(=O)(=O)C3CC3)c2n1 = 0.45

Form field, log10 IC50 with Serine/threonine-protein kinase ATR (Homo sapiens, UniProt Q13535), item "CCS(=O)(=O)c1csc2c(N3CCOC[C@H]3C)nc(-n3c(NC)nc4ccccc43)nc12" : 0.65

# "CCC(=O)N1CCc2c(N3CCOC[C@H]3C)nc(-c3cccc4[nH]ccc34)nc2C1(C)C" with Serine/threonine-protein kinase ATR (Homo sapiens, UniProt Q13535): log10 IC50 is 0.95

# value of log10 IC50, Serine/threonine-protein kinase ATR (Homo sapiens, UniProt Q13535), item "CC(=O)c1ccc(C(=O)N2Cc3c(N4CCOC[C@H]4C)nc(-c4cccc5[nH]ccc45)nc3C2(C)C)cc1" = 0.78
